system: H3N8 A/Miami/2/63; settings: A/Miami/2/63, 48 h, 500 μM
Bridge positions count the residues as written; N and C are the ends. Square brackets hold non-standard residues; d marks the D form. Peptide text beside a SMILES is read from it.
property.name: % inhibition H3N8 (%)
Write the answer as a number in %, unit excluded.

[
  {
    "molecule": "CC[C@@H](C)[C@H]1NC(=O)[C@@H](Cc2ccccc2)NC(=O)[C@@H](CCCNC(=N)N)NC(=O)[C@@H](CO)NC(=O)[C@@H](Cc2c[nH]c3ccccc23)NC(=O)[C@@H]([C@H](C)O)NC(=O)[C@H](NC(=O)[C@@H](CCCCN)NC(=O)[C@@H](CCCCN)NC(=O)[C@@H](CCCNC(=N)N)NC(=O)[C@H](N)CCCNC(=N)N)CSSC[C@H](C(=O)O)NC(=O)[C@@H](CC(N)=O)NC1=O [PSP II A19, H-rrkkctwsrfinc-OH] (H-[dR][dR][dK][dK][dC][dT][dW][dS][dR][dF][dI][dN][dC]-OH; disulfide 5-13)",
    "readout.units": "%",
    "% inhibition H3N8": 82.4
  }
]

Kindly review the next molecule as well.
QUERY: Given the entry CC[C@@H](C)[C@H]1NC(=O)[C@@H](Cc2ccccc2)NC(=O)[C@@H](CCCNC(=N)N)NC(=O)[C@@H](CO)NC(=O)CNC(=O)[C@@H]([C@H](C)O)NC(=O)[C@H](NC(=O)[C@@H](CCCCN)NC(=O)[C@@H](CCCCN)NC(=O)[C@@H](CCCNC(=N)N)NC(=O)[C@H](N)CCCNC(=N)N)CSSC[C@H](C(=O)O)NC(=O)[C@@H](CC(N)=O)NC1=O [PSP II A6, H-rrkkctGsrfinc-OH] (H-[dR][dR][dK][dK][dC][dT]G[dS][dR][dF][dI][dN][dC]-OH; disulfide 5-13) , report its measured % inhibition H3N8.
RESULT: 44.4

---

test system: H1N1 A/PR/8/1934; conditions: A/PR/8/1934, 48 h, 1 μM
Bridge positions count the residues as written; N and C are the ends. Square brackets hold non-standard residues; d marks the D form. Peptide text beside a SMILES is read from it.
Parameter % Inhibition: see the listing below.
Write the answer as a number in %, unit excluded.

Worked examples, 2 compounds total:
[
  {
    "compound": "CC[C@@H](C)[C@H]1NC(=O)[C@@H](Cc2ccccc2)NC(=O)[C@@H]([C@H](C)O)NC(=O)[C@@H](Cc2ccccc2)NC(=O)[C@@H](Cc2c[nH]c3ccccc23)NC(=O)[C@@H](Cc2ccccc2)NC(=O)[C@H](NC(=O)[C@H](CCCCN)NC(=O)[C@H](CCCCN)NC(=O)[C@H](CCCNC(=N)N)NC(=O)[C@@H](N)CCCNC(=N)N)CSSC[C@H](C(=O)O)NC(=O)[C@@H](CC(N)=O)NC1=O [PSP V A5, H-RRKKcfWftfinc-OH] (H-RRKK[dC][dF][dW][dF][dT][dF][dI][dN][dC]-OH; disulfide 5-13)",
    "target.desc": "H1N1 A/PR/8/1934",
    "recorded.value": 57
  },
  {
    "compound": "CC[C@@H](C)[C@H]1NC(=O)[C@@H](Cc2ccccc2)NC(=O)[C@@H]([C@H](C)O)NC(=O)[C@@H](Cc2ccccc2)NC(=O)[C@@H](Cc2c[nH]c3ccccc23)NC(=O)[C@@H](CCCCN)NC(=O)[C@H](NC(=O)[C@H](CCCCN)NC(=O)[C@H](CCCCN)NC(=O)[C@H](CCCNC(=N)N)NC(=O)[C@@H](N)CCCNC(=N)N)CSSC[C@H](C(=O)O)NC(=O)[C@@H](CC(N)=O)NC1=O [PSP V A9, H-RRKKckwftfinc-OH] (H-RRKK[dC][dK][dW][dF][dT][dF][dI][dN][dC]-OH; disulfide 5-13)",
    "target.desc": "H1N1 A/PR/8/1934",
    "recorded.value": 77
  }
]

Kindly review the next compound as well.
QUERY: Given the entry CC[C@@H](C)[C@H]1NC(=O)[C@@H](Cc2ccccc2)NC(=O)[C@@H]([C@H](C)O)NC(=O)[C@@H](Cc2ccccc2)NC(=O)[C@@H](Cc2c[nH]c3ccccc23)NC(=O)[C@@H](Cc2c[nH]c3ccccc23)NC(=O)[C@H](NC(=O)[C@H](CCCCN)NC(=O)[C@H](CCCCN)NC(=O)[C@H](CCCNC(=N)N)NC(=O)[C@@H](N)CCCNC(=N)N)CSSC[C@H](C(=O)O)NC(=O)[C@@H](CS)NC1=O [PSP VI A2, H-RRKKcwwftficc-OH] (H-RRKK[dC][dW][dW][dF][dT][dF][dI][dC][dC]-OH; disulfide 5-13) , report its measured % Inhibition.
RESULT: 95
